Values were extracted from paper PMC11530802.

- measured-target: PCYOX1 (mammalian ancestor)
- Construct: mammalian ancestor's PCYOX1 (26-502), without signal peptide, six histidine N-terminal tag
- protocol: microscale thermophoresis; GC-MS detection of farnesal
metric-name: Kd

Look up Kd for this compound: CC(C)=CCC/C(C)=C/CC/C(C)=C/CSc1ccccc1C(=O)O [salirasib]
12 µM
